Consider the following compounds and their measured EC50 readings.
# Test system: HT-29 cells
# measurement.protocol: HT29 cells 0FBS assay in vitro: TNF-α/SMAC mimetic/zVAD-FMK induced necroptosis, CellTiter-Glo cell viability (RIP1 inhibitory activity)
# Type: cell-based
# stated.conditions: Homo sapiens, FBS free medium, TNF-α (10 ng/ml) + SMAC mimetic (6 uM) + zVAD-FMK (10 μM), 20 hours, geometric mean EC50

| compound | test.target | EC50 |
| --- | --- | --- |
| Cn1ncc(F)c1-c1cc(OC2CN(C(=O)N3N=CC[C@H]3c3cncc(F)c3)C2)c(F)cn1 | HT-29 cells | 0.1 to 100 nM |
| Cc1cnn(C)c1-c1cc(OC2CN(C(=O)N3N=CCC3c3nccs3)C2)c(F)cn1 (stereo not drawn) | HT-29 cells | 0.1 to 100 nM |
| Cc1c(N)nn(C)c1-c1cc(OC2CN(C(=O)N3N=CC[C@H]3c3cncc(C#N)c3)C2)c(F)cn1 | HT-29 cells | 0.1 to 100 nM |
| Cc1cnn(C)c1-c1cc(OC2CN(C(=O)N3N=CCC3c3cncs3)C2)c(F)cn1 (stereo not drawn) | HT-29 cells | 0.1 to 100 nM |
| Cc1cnn(C)c1-c1cc(OC2CN(C(=O)N3N=CCC3c3nc(C)c(C)s3)C2)c(F)cn1 (stereo not drawn) | HT-29 cells | 100 to 1000 nM |
| Cc1noc(C)c1-c1ncc(F)c(OC2CN(C(=O)N3N=CC[C@H]3c3cncc(F)c3)C2)n1 | HT-29 cells | 0.1 to 100 nM |
| Cc1cnn(C)c1-c1nc(OC2CN(C(=O)N3N=CC[C@H]3c3cc(F)cc(F)c3)C2)sc1CO | HT-29 cells | 1000 to 10000 nM |
| Cc1ccc(C)n1-c1cc(OC2CN(C(=O)N3N=CC[C@H]3c3cc(F)cc(C#N)c3)C2)c(F)cn1 | HT-29 cells | 0.1 to 100 nM |
| Cc1nn(CC2CC2)c(C)c1-c1cc(OC2CN(C(=O)N3N=CC[C@H]3c3cc(F)cc(C#N)c3)C2)c(F)cn1 | HT-29 cells | 0.1 to 100 nM |
| Cc1cnn(C)c1-c1nc(OC2CN(C(=O)N3N=CC[C@H]3c3cc(F)cc(F)c3)C2)sc1Cl | HT-29 cells | 0.1 to 100 nM |
| Cc1nn(-c2cc(OC3CN(C(=O)N4N=CC[C@H]4c4cccc(F)c4)C3)c(F)cn2)c(C)c1C(=O)O | HT-29 cells | 0.1 to 100 nM |
| Cc1nn(-c2cc(OC3CN(C(=O)N4N=CC[C@H]4c4ccccc4)C3)c(F)cn2)c(C)c1C(=O)NCCO | HT-29 cells | 0.1 to 100 nM |
| Cc1cnn(C)c1-c1cc(OC2CN(C(=O)C3=NNCC3c3cc(F)cc(F)c3)C2)c(F)cn1 (stereo not drawn) | HT-29 cells | 0.1 to 100 nM |
| CCNC(=O)c1c(C)nn(-c2cc(OC3CN(C(=O)N4N=CC[C@H]4c4cc(F)cc(C#N)c4)C3)c(F)cn2)c1C | HT-29 cells | 0.1 to 100 nM |
| CCn1nccc1-c1cc(OC2CN(C(=O)N3N=CC[C@H]3c3cc(F)cc(C#N)c3)C2)c(F)cn1 | HT-29 cells | 0.1 to 100 nM |

Data provenance: patent US20240294508A1
